Biological target: T1, human GFRα3 expressed with a C-terminal myc-myc-hexahistidine tag (human, UniProt O60609 32-374, biotinylated (sites not given) in ELISA format 2 and in the Octet cross-competition; not in SPR)
T1 construct: also called hGFRα3-mmh; hGFRα3-mmH
T1 sequence (O60609 other isoform, or with tags, fused parts or gaps limits assumed): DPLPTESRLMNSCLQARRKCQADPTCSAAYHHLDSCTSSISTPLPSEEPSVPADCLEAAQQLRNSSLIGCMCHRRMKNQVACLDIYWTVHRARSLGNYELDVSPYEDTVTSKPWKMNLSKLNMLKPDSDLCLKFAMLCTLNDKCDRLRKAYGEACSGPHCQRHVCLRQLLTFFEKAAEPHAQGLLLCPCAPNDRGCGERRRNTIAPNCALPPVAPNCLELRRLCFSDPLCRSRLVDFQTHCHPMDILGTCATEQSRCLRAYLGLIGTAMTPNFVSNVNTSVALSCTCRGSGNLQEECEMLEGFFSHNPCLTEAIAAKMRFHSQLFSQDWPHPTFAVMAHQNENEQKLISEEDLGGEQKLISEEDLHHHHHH
Assay: SPR, Ab captured, 25C
Description: […]
property: koff (s⁻¹)
The reply should be a number in s⁻¹, with the unit left off.

Q: May I ask what koff has been recorded for H4H2352S (antibody, human IgG4, V domains shown, human IgG4 Fc (H4H); also called H4H2352S-1) VH: EVQLVQSGAEVKKPGASVKVSCKASGYTFTNYGITWVRQAPGQGLEWMGWISAYNGNTGYAQKFQGRVTMTTDTSTSTAYMELRSLRSDDTAVYYCAREDYDFWRAFDIWGQGTMVTVSS VL: EIVLTQSPGTLSLSPGERATLSCRASQSVSSTYLAWLQQKPGQAPRLLIYGASSRATGIPDRFSGSGSGTDFTLTINRLEPEDFAVYYCQQYAYSPYTFGQGTKLEIK ?
Result: 5.81e-05

Q: Item under review: H2aM2210N (antibody, mouse IgG2, V domains shown, chimeric, mouse IgG2 Fc (H2M/H2aM); also called H2M2210N) VH: EVQLLESGGGLVQPGGSLRVSCAASGFTFSTSAMSWVRQAPGKGLEWVSGISGIGGGSTYYADSVKGRFTISRDNSKNTLYLQMNSLRAEDTAVYFCAKFYKWNSYIFDLWGQGTMVTVSS VL: EIVLTQSPDTLSLSPGERATLSCRASQSVSSSYFAWYQQKPGQAPRLLMYSASSRATGIPDRFSGSGSGTDFSLTISRLEPEDFAVYYCQQYGRSLTFGGGTKVEIK . Reported koff?
Result: 0.000863

Q: Quick one: koff of H4H2346S (antibody, human IgG4, V domains shown, human IgG4 Fc (H4H)) VH: QVQLVESGGGVVQPGRSLRLSCAASGFSFSDYVMHWVRQAPGKGLEWVASIWFDGSNEFYADSVKGRFTISRDNSKNTLFLQMNSLRAEDTAVYYCAKKGVLVATSAFDIWGQGTMVTVSS VL: EIVMTQSPSSLSASVGDRVTITCRASQSINNYLNWYHQKPGKAPKLLIYAASSLQSGVPSRFSGSGSGTDYTLTISSLQPEDFGNYYCQQSYRTSMYTFGQGTKVEIK ?
Result: 7.99e-05
